# Tested on: mouse melanoma cell line B16
# assay_method_text: CCK-8 cytotoxicity assay, B16 cells
# Format: cell-based
# particulars: Mus musculus, B16, 48 h, CCK-8, 48 h incubation, mean ± SD, n = 3
attribute_measured: IC50 (µM)
Kindly provide the numeric value in µM only, without the unit symbol.

Solved cases below.
smiles_string: O=C(Nc1ccc(C(=O)/C=C/c2ccc(O)cc2)cc1)Nc1ccc(Cl)c(C(F)(F)F)c1
IC50, µM: 4.29
--
smiles_string: COc1ccc(/C=C/C(=O)c2ccc(NC(=O)Nc3ccc(Cl)c(C(F)(F)F)c3)cc2)cc1
IC50, µM: 8.32
--
smiles_string: O=C(Nc1ccc(C(=O)/C=C/c2ccc(F)cc2)cc1)Nc1ccc(Cl)c(C(F)(F)F)c1
IC50, µM: 5.02

In: Quick check: IC50 on mouse melanoma cell line B16, item `Cc1ccc(/C=C/C(=O)c2ccc(NC(=O)Nc3ccc(Cl)c(C(F)(F)F)c3)cc2)cc1` ?
Out: 7.15

In: Quick check: IC50 on mouse melanoma cell line B16, item `CCc1ccc(/C=C/C(=O)c2ccc(NC(=O)Nc3ccc(Cl)c(C(F)(F)F)c3)cc2)cc1` ?
Out: 8.66

In: Quick check: IC50 on mouse melanoma cell line B16, item `O=C(Nc1ccc(C(=O)/C=C/c2cccc(Cl)c2)cc1)Nc1ccc(Cl)c(C(F)(F)F)c1` ?
Out: 11.3

In: Quick check: IC50 on mouse melanoma cell line B16, item `COc1cc(/C=C/C(=O)c2ccc(NC(=O)Nc3ccc(Cl)c(C(F)(F)F)c3)cc2)cc(OC)c1O` ?
Out: 2.93

In: Quick check: IC50 on mouse melanoma cell line B16, item `O=C(Nc1ccc(C(=O)/C=C/c2ccc(Cl)cc2)cc1)Nc1ccc(Cl)c(C(F)(F)F)c1` ?
Out: 12.8

In: Quick check: IC50 on mouse melanoma cell line B16, item `COc1cc(/C=C/C(=O)c2ccc(NC(=O)Nc3ccc(Cl)c(C(F)(F)F)c3)cc2)ccc1O` ?
Out: 4.37

In: Quick check: IC50 on mouse melanoma cell line B16, item `O=C(Nc1ccc(C(=O)/C=C/c2ccc(O)c(O)c2)cc1)Nc1ccc(Cl)c(C(F)(F)F)c1` ?
Out: 4.49

In: Quick check: IC50 on mouse melanoma cell line B16, item `Cc1ccc(/C=C/C(=O)c2ccc(NC(=O)Nc3ccc(Cl)c(C(F)(F)F)c3)cc2)cc1C` ?
Out: 6.42

====

Each entry below carries its reported IC50.
# Tested on: mouse melanoma cell line B16
# assay_method_text: CCK-8 cytotoxicity assay, B16 cells
# Format: cell-based
# particulars: Mus musculus, B16, 48 h, CCK-8, 48 h incubation, mean ± SD, n = 3

Solved cases below.
compound: COc1cc(/C=C/C(=O)c2ccc(NC(=O)Nc3ccc(Cl)c(C(F)(F)F)c3)cc2)cc(OC)c1OC [Compound 2f]
IC50: 1.62 to 2.02 µM

compound: O=C(Nc1ccc(C(=O)/C=C/c2cc(F)cc(F)c2)cc1)Nc1ccc(Cl)c(C(F)(F)F)c1 [Compound 2l]
IC50: 1.25 to 1.39 µM

In: Would you kindly share the measured IC50 for COc1cc(/C=C/C(=O)c2ccc(NC(=O)Nc3ccc(Cl)c(C(F)(F)F)c3)cc2)cc(OC)c1 [Compound 2h] ?
Out: 1.62 to 2.02 µM

Origin of values: paper PMC12692968
